- system name: TDP-43 (Homo sapiens, UniProt Q13148 1-414)
- Sequence (Q13148 whole entry): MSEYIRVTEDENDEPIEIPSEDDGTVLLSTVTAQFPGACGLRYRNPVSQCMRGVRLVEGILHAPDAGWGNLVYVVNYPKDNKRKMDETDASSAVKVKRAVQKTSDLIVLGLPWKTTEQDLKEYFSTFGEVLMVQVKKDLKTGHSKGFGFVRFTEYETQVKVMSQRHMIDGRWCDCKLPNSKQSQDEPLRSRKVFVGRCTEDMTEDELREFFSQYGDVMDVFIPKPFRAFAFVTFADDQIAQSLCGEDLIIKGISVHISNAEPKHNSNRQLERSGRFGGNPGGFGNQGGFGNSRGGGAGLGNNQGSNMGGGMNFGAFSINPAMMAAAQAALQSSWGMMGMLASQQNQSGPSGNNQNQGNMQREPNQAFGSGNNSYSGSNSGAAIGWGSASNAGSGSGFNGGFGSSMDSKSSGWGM
- test description: RNA Bind-n-Seq with designed 260-mer pool; 25 mM Tris-HCl, 150 mM KCl, 3 mM MgCl2, BSA (printed 500 mg/mL), 20 units/mL SUPERase IN; pH not stated; 500 nM RNA pool, 1 h, 4 C; TDP-43 5, 50, 500 nM; high values mean tight binding
- test conditions: protein: recombinant; tags: SBP (GST cleaved off with PreScission; pGEX-GST-SBP)
Whole data set: some 9,900 sequences, median “r (bound/input frequency ratio)” near 0.7, cut for the highest 2% near 6.5. What follows is part of a selection rich in the highest values, with near analogues and random picks from the rest.
Listed next: entries and their corresponding binding signal.

binder: ENSMUSG00000032194.274|Kank2|91:95;178:182 (ssRNA) RNA: GGGAGUUCUACAGUCCGACGAUCGCUUCGAUAUCCGCAUGCUAGGAUGCAUAAAUGAAUAGAUGGAUGGAUGAAUGAACAGAUAGAUGAAUGGAUGGAUGGACAGGUGGGUGGAUGGAUGGGUGGACGGAUGACACACGGGUGGGUGGAUGGAUAAAUGAGCAAUGGAUGAGAAACUGGGUUGGCUGGUGGGUAGAUGUCAUGAUGGAGUCUUUGCACGUCAUACAAACAGAAAACCAAACUUCAGGACAGACAGCUGCUGGUGUCUCUGGAUGCUCACAGCCUAGGGCACAUUUGAAAGGUCCUCUUGCGGUCGCACUAGUGUGGAAUUCUCGGGUGUCAAGG
binding signal: 5.59 R (bound/input frequency ratio)
--
binder: ENSMUSG00000061578.1409|Ksr2 (ssRNA) RNA: GGGAGUUCUACAGUCCGACGAUCGCUUCGAUAUCCGCAUGCUAGGACCUCAGGCCCACUGUUUUCUCCAUGUCUGUCUGUACUGACUGUUGCAGAAUGAGCUGAUGUAUGAUCUUGAUUCUCCAUUUUCCUUCUGGACCACAUGUCUCUUCCUUUUCCUUUUUAGAUCUGUCUUGCUCUCUGUCUCUCUCACUCAUUGCCAACAUGUUGCUGGGAAAGAAUAUUUGAUUUAGAUGCCAAUCAGGAAGGCAAGUAGGAUGGAUGGAUGAGUGAGUGGAUAGGUAGGUAUAUAAAUGGAUGGAUGCUCUUGCGGUCGCACUAGUGUGGAAUUCUCGGGUGUCAAGG
binding signal: 1.55 R (bound/input frequency ratio)
--
binder: ENSMUSG00000032194.279|Kank2 (ssRNA) RNA: GGGAGUUCUACAGUCCGACGAUCGCUUCGAUAUCCGCAUGCUAAUGAACAGAUAGAUGAAUGGAUGGAUGGACAGGUGGGUGGAUGGAUGGGUGGACGGAUGAGUGUGGGGUGGGUGGAUGGAUAAAUGAGCAAUGGAUGAGAAACUGGGUUGGCUGGUGGGUAGAUGUCAUGAUGGAGUCUUUGCACGUGUAUGAAACAGAAAACCAAACUUCAGGACAGACAGCUGCUGGUGUCUCUGGAUGCUCACAGCCUAGGGCACAUUUGAAAGGUCGUGCUCUGAGCUGAGCCCUGAGUUCCAGCCCUCUUGCGGUCGCACUAGUGUGGAAUUCUCGGGUGUCAAGG
binding signal: 5.39 R (bound/input frequency ratio)
--
binder: ENSMUSG00000042529.254|Kcnj12 (ssRNA) RNA: GGGAGUUCUACAGUCCGACGAUCGCUUCGAUAUCCGCAUGCUAUUCCCCUAGGACCCGCUGCAGAGGCAUGGGCUCCUCUGUGGUCCUGGCCAGACCUCUGCCCCCAAAUCUCACUGACUGUUCUAGCCUUGGCCUUGGGGCCUAAGGGUGCAUUCAGCCUGGGUGUGCUUACCUGCCACUCACCUCUCUAUCUAGUUGUCGAGUCUAGGGAAGGGCAGAGGGUGGGUCCUGGCCACUGGGUGCCACUGUGGGAGCCGGGGCACCUGUCAUUCUUUCUGAGUAGGUGGGCCUGUAUCCAGAGCCUCUUGCGGUCGCACUAGUGUGGAAUUCUCGGGUGUCAAGG
binding signal: 0.966 R (bound/input frequency ratio)
--
binder: ENSMUSG00000038916.65|Soga3 (ssRNA) RNA: GGGAGUUCUACAGUCCGACGAUCGCUUCGAUAUCCGCAUGCUAACCUUUCUUUGUUUUGCACUCUUGAGUCAUAGUUGACUGGCUGACUGUGAAAAAUGGACAAAGUCUCAUAAUUAUUCUGUAGGAAUUGAGUAUUAUUUUACACCUGGAAAAUUUCAGCUGGUUGCAUUUUCAAAUUCAUGUAGAGGCAUUAAUUAUAAGUCAAUGUAGAUGAUUUAUAAAUUAUCUCUGUUAUAAAUUAUGUAGAUUUGUAAGCAUGCUGUUACUCAUGUUAGACAAAAAGGAAAACAUCAAUGUCUAAUCUCUUGCGGUCGCACUAGUGUGGAAUUCUCGGGUGUCAAGG
binding signal: 0.077 R (bound/input frequency ratio)
--
binder: ENSMUSG00000032194.273|Kank2|97:101;184:188 (ssRNA) RNA: GGGAGUUCUACAGUCCGACGAUCGCUUCGAUAUCCGCAUGCUAGUGGAUGGAUGCAUAAAUGAAUAGAUGGAUGGAUGAAUGAACAGAUAGAUGAAUGGAUGGAUGGACAGGUGGGUGGAUGGAUGGGUGGACGGAUGACACACGGGUGGGUGGAUGGAUAAAUGAGCAAUGGAUGAGAAACUGGGUUGGCUGGUGGGUAGAUGUCAUGAUGGAGUCUUUGCACGUCAUACAAACAGAAAACCAAACUUCAGGACAGACAGCUGCUGGUGUCUCUGGAUGCUCACAGCCUAGGGCACAUUUGACUCUUGCGGUCGCACUAGUGUGGAAUUCUCGGGUGUCAAGG
binding signal: 6.83 R (bound/input frequency ratio)
--
binder: ENSMUSG00000032194.275|Kank2 (ssRNA) RNA: GGGAGUUCUACAGUCCGACGAUCGCUUCGAUAUCCGCAUGCUAAUAAAUGAAUAGAUGGAUGGAUGAAUGAACAGAUAGAUGAAUGGAUGGAUGGACAGGUGGGUGGAUGGAUGGGUGGACGGAUGAGUGUGGGGUGGGUGGAUGGAUAAAUGAGCAAUGGAUGAGAAACUGGGUUGGCUGGUGGGUAGAUGUCAUGAUGGAGUCUUUGCACGUGUAUGAAACAGAAAACCAAACUUCAGGACAGACAGCUGCUGGUGUCUCUGGAUGCUCACAGCCUAGGGCACAUUUGAAAGGUCGUGCUCCUCUUGCGGUCGCACUAGUGUGGAAUUCUCGGGUGUCAAGG
binding signal: 7.07 R (bound/input frequency ratio)

Reference for the values: paper PMC12864922
